B1: C9orf9 (parent)
chain: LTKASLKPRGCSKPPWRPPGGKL

Variants of: B1
Assay: protein stability index of a GFP-peptide fusion (GPS, HEK-293T) (PSI 1-6); higher = more stable;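 note: lentivirally expressed fusions sorted by FACS into six bins by GFP to DsRed ratio, PSI derived from sequencing read proportions per bin multiplied by bin number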
Settings: c terminus: native
Decide by protein stability index: equal to or exceeding 2 means Criterion met, less means Criterion not met.

W16Y Criterion met
S5H Criterion not met
G21R Criterion not met
R9F Criterion not met
P8A Criterion met
P15D Criterion met
G21K Criterion met
L23F Criterion not met

Quick check: does L6Q have protein stability index greater than or equal to 2?
Criterion met

Quick check: does C11V have protein stability index greater than or equal to 2?
Criterion met

Quick check: does G10M have protein stability index greater than or equal to 2?
Criterion met

Quick check: does K7H have protein stability index greater than or equal to 2?
Criterion met

Quick check: does W16E have protein stability index greater than or equal to 2?
Criterion met

Quick check: does R17S have protein stability index greater than or equal to 2?
Criterion met

Quick check: does G10V have protein stability index greater than or equal to 2?
Criterion met

Quick check: does P19M have protein stability index greater than or equal to 2?
Criterion met

Quick check: does P8Y have protein stability index greater than or equal to 2?
Criterion met

Quick check: does P15Q have protein stability index greater than or equal to 2?
Criterion met

Quick check: does P18N have protein stability index greater than or equal to 2?
Criterion met

Quick check: does P19N have protein stability index greater than or equal to 2?
Criterion met

Quick check: does T2V have protein stability index greater than or equal to 2?
Criterion not met

Quick check: does A4Q have protein stability index greater than or equal to 2?
Criterion not met

Quick check: does R17D have protein stability index greater than or equal to 2?
Criterion met

Quick check: does P19C have protein stability index greater than or equal to 2?
Criterion met

Quick check: does R9N have protein stability index greater than or equal to 2?
Criterion met

Quick check: does K7A have protein stability index greater than or equal to 2?
Criterion met

Quick check: does G20S have protein stability index greater than or equal to 2?
Criterion met

Quick check: does L1R have protein stability index greater than or equal to 2?
Criterion met

Quick check: does K3P have protein stability index greater than or equal to 2?
Criterion met

Quick check: does C11Q have protein stability index greater than or equal to 2?
Criterion not met

Quick check: does P19D have protein stability index greater than or equal to 2?
Criterion met

Quick check: does P15T have protein stability index greater than or equal to 2?
Criterion met
